Target: T1, mouse GIP receptor (mouse, UniProt Q0P543 19-460)
T1 sequence (looked up): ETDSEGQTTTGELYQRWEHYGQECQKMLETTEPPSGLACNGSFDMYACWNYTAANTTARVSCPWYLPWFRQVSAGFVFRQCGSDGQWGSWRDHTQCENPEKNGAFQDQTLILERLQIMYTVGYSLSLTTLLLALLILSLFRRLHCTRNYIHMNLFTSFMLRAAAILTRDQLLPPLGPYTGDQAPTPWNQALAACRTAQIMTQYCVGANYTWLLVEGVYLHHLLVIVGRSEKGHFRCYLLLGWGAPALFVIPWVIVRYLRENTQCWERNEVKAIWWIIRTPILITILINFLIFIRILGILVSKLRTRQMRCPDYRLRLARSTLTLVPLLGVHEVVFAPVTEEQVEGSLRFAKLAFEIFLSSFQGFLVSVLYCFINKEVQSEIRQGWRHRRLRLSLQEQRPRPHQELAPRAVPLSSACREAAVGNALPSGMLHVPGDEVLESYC
Assay: cell-based or functional assay
Here the recorded cAMP EC50, Batch 2 is given for each entry.
# unit: nM | format: bare number

Below, 4 binders whose answers are already recorded.
binder: IP149 (Fc fusion) YSQGTFTSDYSKLLEEEAVRLFIEWLVKGPAPPGGSGSTASSGSGSATGGGGAATHTCPPCPAPEF
experimental.result: 53
//
binder: IP296 (Fc fusion) YSEGTFTSDYSKLLEEEAVRCFIEWLVKGGPSSGAPPCSGGGGGGGGGGGGGGGGGGGGGGGGACPPC
experimental.result: 55
//
binder: IP292 (Fc fusion) YSEGTFTSDYSKLLEEEAVRCFIEWLVKGGPGGGAPPCGGGGGGGGGGGGGGGGGGGACPPC
experimental.result: 55.4
//
binder: IP325 (Fc fusion) YSEGTFTSDYSKLLEEEAVRLFIEWLVKGPGGGGGSGGGGSGGGGSGGGGSGGGGSGGGGSGGGGSGGGGSA
experimental.result: 57.2

// below: cAMP EC50, Batch 2 requested for another binder
Query: Quick one: cAMP EC50, Batch 2 of IP295 (Fc fusion) YSEGTFTSDYSKLLEEEAVRLFIEWLLAGGPSSGAPPPSGGGGGSGGGGSGGGGSGGGGSATHTCPPC ?
Reply: 1.2
